Hello, the source for this data is paper PMC10068418, in case you need it.

procedure details: in vitro
recorded conditions: male, Syrian, hamster, serum
recorded metric: fraction unbound
One number for each entry.

[in] Form field: reported fraction unbound of Cn1cnc(Cn2c(=O)[nH]/c(=N\c3cc4cn(C)nc4cc3Cl)n(Cc3cc(F)c(F)cc3F)c2=O)n1
[out] 0.017

====

procedure details: Protein binding of nirmatrelvir in hamster serum by equilibrium dialysis
Type: in vitro ADME, Syrian hamsters
recorded conditions: male, Syrian, pH 7.4
recorded metric: fraction unbound at 24 h, 4 µM
Give bare numbers.

[in] Form field: reported fraction unbound at 24 h, 4 µM of CC(C)(C)[C@H](NC(=O)C(F)(F)F)C(=O)N1C[C@H]2[C@@H]([C@H]1C(=O)N[C@H](C#N)C[C@@H]1CCNC1=O)C2(C)C
[out] 0.596

====

procedure details: Protein binding of nirmatrelvir in mouse serum by equilibrium dialysis
Assay type: in vitro ADME, BALB/cAJcl mice
recorded conditions: female, BALB/cAJcl, pH 7.4
recorded metric: fraction unbound at 24 h, 4 µM
Give bare numbers.

[in] Form field: reported fraction unbound at 24 h, 4 µM of CC(C)(C)[C@H](NC(=O)C(F)(F)F)C(=O)N1C[C@H]2[C@@H]([C@H]1C(=O)N[C@H](C#N)C[C@@H]1CCNC1=O)C2(C)C [Nirmatrelvir, nirmatrelvir]
[out] 0.669
